Tested on: Sonic hedgehog protein (Shh)
Test: small-molecule binders of Shh protein, primary screen, biochemical, small-molecule microarray, 635/667 nm fluorescence (AID 1151);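 further: Shh protein binding to compounds spotted on small-molecule microarray slides; score combines spot fluorescence intensity with signal-to-noise across triplicate slides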
Conditions: small-molecule microarray binding, 635 nm fluorescence; higher = more signal
readout name: composite z-score
Answers are plain numbers.

Recorded results for 2 compounds are shown here.
CCOC(=O)C1=NO[C@]2(C=C(Br)C3(OCCCO3)[C@H]3O[C@H]32)C1 :: 0.0095
CCN1C(=O)[C@H]2[C@H]3[C@H](O)[C@H](O)CC(=NOCC(C)C)[C@@H]3CC[C@H]2C1=O :: 1.31

Next:
Item under review: CCOC(=O)[C@H](CC(C)C)NC(=O)CCC1CC(OC(=O)NCc2ccc3c(c2)OCO3)CC2(CCCC(COC(=O)NCCCN3CCCC3=O)O2)O1 (stereo partly drawn) . Reported composite z-score? 1.74
